Attribute: koff
Target: T1, Human CD24 (human, UniProt P25063 27-59, limits assumed)
T1 chain (looked up): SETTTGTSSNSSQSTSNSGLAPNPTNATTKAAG
Assay: affinity ranking; antibody as ligand, Human CD24 as analyte
Report the value in s⁻¹ with no unit label.

Example entries and their recorded answers appear below.
>>> result_number("VH4 + VL1 (humanized 4451) (antibody, V domains shown, IgG expressed in HEK293) VH: QVQLVQSGAEVKKPGASVKVSCKASGYDFTGYHMNWVKQAPGQGLEWIGEINPITSDKTFNQKFKSRATMTVDRSISTAYMELSRLRSDDTAVYYCARRDYGTSLDYWGQGTTVTVSS VL: DIQLTQSPSFLSASVGDRVTITCRASKSISKYLAWYQQKPGKAPKLLIYAGSTLHSGVPSRFSGSGSGTEFTLTISSLQPEDFATYYCQQHNEYPITFGQGTKLEIK")
0.0128
>>> result_number("VH4 + VL3 (humanized 4451) (antibody, V domains shown, IgG expressed in HEK293) VH: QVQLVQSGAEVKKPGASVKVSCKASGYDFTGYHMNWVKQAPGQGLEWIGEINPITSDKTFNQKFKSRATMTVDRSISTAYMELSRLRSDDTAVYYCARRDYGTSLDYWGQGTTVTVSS VL: DIQLTQSPSFLSASVGDRVTITCRASKSISKYLAWYQQKPGKAPKLLIYAGSTLHSGIPSRFRGSGSGTEFTLTISSLQPEDFATYYCQQHNEYPITFGQGTKLEIK")
0.0119
>>> result_number("VH2 + VL2 (humanized 4451) (antibody, V domains shown, IgG expressed in HEK293) VH: QVQLVQSGAEVKKPGASVKVSCKASGYDFTGYHMNWVRQAPGQGLEWIGEINPITSDKTFNQKFKSRVTMTVDTSISTAYMELSRLRSDDTAVYYCARRDYGTSLDYWGQGTTVTVSS VL: DIQLTQSPSFLSASVGDRVTITCRASKSISKYLAWYQQKPGKAPRLLIYAGSTLHSGVPSRFRGSGSGTEFTLTISSLQPEDFATYYCQQHNEYPITFGQGTKLEIK")
0.0234

// below: koff requested for another binder
Problem: What measured koff goes with VH4 + VL4 (humanized 4451) (antibody, V domains shown, IgG expressed in HEK293) VH: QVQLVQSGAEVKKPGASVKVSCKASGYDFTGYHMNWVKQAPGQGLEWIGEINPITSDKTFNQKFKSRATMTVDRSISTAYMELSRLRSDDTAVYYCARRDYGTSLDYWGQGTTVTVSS VL: DIQLTQSPSFLSASVGDRVTIYCRASKSISKYLAWYQQKPGKAPRLLIYAGSTLHSGIPSRFRGSGSGTEFTLTISSLQPEDFATYYCQQHNEYPITFGQGTKLEIK ?
Result: 0.0122
